Value source: patent US20060240535A1

Below, each entry is listed alongside its reported spec. Act. (U/mg).
# Tested on: carbonyl reductase from Lactococcus lactis
# assay details: CRLL activity assay (decrease of NADPH absorption); substrate table of the isolated carbonyl reductase
# Type: biochemical
# experimental setup: Substrate (20 mM); activity per protein (0.37, 5.5 or 6.6 mg/mL)
Return type: number; implicit unit U/mg.

Example cases with answers are listed next.
CCCC=O = 34.32
CC1(C)COC(=O)C1=O = 25.65

Record O=C(O)C(=O)c1ccccc1 [benzoylformate] . Reported spec. Act. (U/mg): 0

The molecule CCCCCC=O showed spec. Act. (U/mg) equal to 6.942

molecule CCCCCCCC=O , spec. Act. (U/mg) observed: 1.656

Form: molecule = O=Cc1ccccc1 ; spec. Act. (U/mg) = 1.258

spec. Act. (U/mg) reading for CC(=O)CC(C)C : 3.288

Please fill in: spec. Act. (U/mg) reported for O=C1CCCC2CCCCC12 (centres unmarked) = 14.3

###

# Tested on: carbonyl reductase from Lactococcus lactis
# assay details: CRLL activity assay (decrease of NADPH absorption); substrate table of the isolated carbonyl reductase
# Type: biochemical
# experimental setup: Substrate (20 mM); activity per protein (0.37, 5.5 or 6.6 mg/mL)
# Description: The construct crll-pkk223-3 as well as crll-his-pkk223-3 were both transformed separately into the E. coli host strain HB101 for expression.
spec. Act. (U/mg) below 1 U/mg gives rule not met; spec. Act. (U/mg) at or above it gives rule met.

Use the examples below as a reference point.
CC(C)=O = rule met
CC(=O)c1ccccc1 = rule met
CCOC(=O)C(=O)c1ccccc1 [ethyl benzoylformate] = rule met
CCOCCO = rule not met
CC(=O)COc1ccccc1 = rule met
CCOC(=O)CC(=O)c1ccccc1 [ethyl benzoylacetate] = rule met

Is the recorded value of spec. Act. (U/mg) equal to or greater than 1 U/mg for this compound? COC(=O)C(=O)c1ccccc1 [Methyl benzoylformate] rule not met

In plain terms: is recorded spec. Act. (U/mg) at least 1 U/mg for COC(=O)CC(C)=O [Methyl acetoacetate] ? rule met

Decide: spec. Act. (U/mg) of CC(O)CO (stereo not drawn) >= 1 U/mg? rule not met

Is it the case that CC1CC(=O)CC(C)(C)C1 (stereo not drawn) has spec. Act. (U/mg) reaching or exceeding 1 U/mg? rule not met

State whether the measured spec. Act. (U/mg) reaches 1 U/mg, counting equality as reaching it, for CC(=O)C(C)C rule met

###

# Test system: carbonyl reductase from Lactococcus lactis
# assay details: CRLL activity assay (decrease of NADPH absorption); substrate table of the isolated carbonyl reductase
# Type: biochemical
# experimental setup: Substrate (20 mM); activity per protein (0.37, 5.5 or 6.6 mg/mL)
Overview of reported spec. Act. (U/mg) across a group of compounds:
Show the value, then the unit it is measured in.

Answered cases to consult:
CCC=O [propionaldehyde] = 10.45 U/mg
CCCCC(C)=O [2-hexanone] = 3.459 U/mg

Record for CCOC(=O)CC(C)=O [ethyl acetoacetate] under target or system carbonyl reductase from Lactococcus lactis: spec. Act. (U/mg) reported as 19.11 U/mg

Form field, spec. Act. (U/mg) with carbonyl reductase from Lactococcus lactis, item O=C1CCCCC1 [cyclohexanone] : 7.424 U/mg

The compound CC(=O)C(C)(C)C [pinacolone] on carbonyl reductase from Lactococcus lactis: spec. Act. (U/mg) was 3.409 U/mg

Record CCCC(=O)CC(=O)OCC [ethyl 3-oxohexanoate] / carbonyl reductase from Lactococcus lactis, spec. Act. (U/mg) recorded as 26.05 U/mg
